test: qHTS assay to identify small molecule antagonists of the estrogen related receptor (ERR) signaling pathway from Tox21 library (AID 1224848); details: ERR reporter cell line, luciferase antagonist mode, 18 h; series mostly up to 92.4 µM; also: nearly all actives have a fitted effect of over 50% in size; also: potency is read from the fitted curve at half-maximal effect
Results filed as inconclusive are left out. Active and inactive are the calls of the source. Calls follow the shape of the dose curve; as a rule, active = well fitted inhibition curve with a large enough effect in the repeat runs; inconclusive = weak or mixed curves; inactive = no such curve, though single readings can be large or run the other way.
assay.metric: Potency

CCN(CC)CCOc1ccc2c(c1)C(=O)c1cc(OCCN(CC)CC)ccc1-2 :: 18.8 µM (active)
CC(O)C1CCCCC1 (configuration not stated) :: inactive
CCCCCCCCCO :: inactive
COc1ccc([C@@H]2Sc3ccccc3N(CCN(C)C)C(=O)[C@@H]2OC(C)=O)cc1 :: 16.8 µM (active)
CCCCCC/C=C/C=O :: inactive

(Q) What does the record list as Potency for Cn1c(NCCN(CCO)CCCc2ccc([N+](=O)[O-])cc2)cc(=O)n(C)c1=O ?
(A) inactive

---

molecular target: Voltage-gated inwardly rectifying potassium channel KCNH2 (Homo sapiens); experiment: Human Ether-a-go-go-Related Gene (hERG) channel small molecule antagonists: fluorescence cell-based qHTS assay (AID 1671200); settings: hERG-U2OS cells, FluxOR thallium flux fluorescence; series mostly up to 76.8 µM;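 also: hERG-expressing U2OS cells given a thallium stimulus after FluxOR II dye loading; % is scaled to controls: 0 for no effect and ±100 for the full control effect; nearly all actives have a fitted effect of over 50% in size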
Results filed as inconclusive are left out. Active and inactive are the calls of the source. Calls follow the shape of the dose curve; as a rule, active = well fitted inhibition curve with a large enough effect in the repeat runs; inconclusive = weak or mixed curves; inactive = flat fitted curve, though single readings scatter.
I would appreciate it if you answered using one of these outcomes: Y = active, N = inactive

Record excerpt, results attached:
Oc1ccc(C(O)CNCCCCCCNCC(O)c2ccc(O)c(O)c2)cc1O (centres undefined) :: N
C=C(C)C(=O)OCCN(C)C :: N

Consider now this further molecule.
(Q) Tell me the recorded outcome of this test for CCCCCC/C=C/C=O .
(A) N

---

assay: qHTS assay to identify small molecule agonists of the retinoic acid receptor (RAR) signaling pathway (AID 1159553); conditions: C3RL4 RARE luciferase reporter, agonist, 6 h; series mostly up to 73.3 µM; as to activation: % is scaled to controls: 0 for no effect and ±100 for the full control effect
Inconclusive results are not listed. The source made the active and inactive calls. Calls follow the shape of the dose curve; as a rule, active = well fitted activation curve with a large enough effect in the repeat runs; inconclusive = weak or mixed curves, or effect the other way; inactive = no such curve, though single readings can be large or run the other way.
Permitted responses: class 1 (active), class 0 (inactive)

Reference set (2 entries):
CC(=O)CC(=O)c1ccccc1 :: class 0
CCCCCOC(=O)c1ccc(O)cc1 :: class 1

(Q) Check the results log: what was the call for N=C(N=C(N)N)N1CCOCC1 ?
(A) class 0

(Q) Would you mind telling me which call this test gave CC(C)(C)c1ccc(OCC2CO2)cc1 (stereo not drawn) ?
(A) class 1

(Q) Give the logged outcome of this assay for the following molecule: CCCCOc1ccc(CC(=O)NO)cc1
(A) class 1

(Q) Which outcome was assigned to O=C(O)c1cccc(N(Cc2cccnc2)c2ccc(OC(F)F)c(OC(F)F)c2)c1 in this test?
(A) class 0

(Q) State the result this test recorded for C#CCOC(=O)[C@@H](C)Oc1ccc(Oc2ncc(Cl)cc2F)cc1 .
(A) class 0

(Q) What outcome does the record of this test show for COCCOCCOCCOCCOC ?
(A) class 0

(Q) What did this assay record as the result for Cc1ccc(C(C)c2ccc(C)c(C)c2)cc1C ?
(A) class 0

---

Each record here notes measured max response.
assay: qHTS RealTime-Glo MT Cell Viability Assay in HEK293 cells - 40 hour (AID 1224874); conditions: RealTime-Glo luminescence; hits give low values; also: % is scaled to controls: 0 for no effect and ±100 for the full control effect; nearly all actives have a fitted effect of over 50% in size
Inconclusive results are not listed.
Numbers only here, please. The scale is %.

Below are worked cases with known answers.
CCN(CC)CCNC(C(=O)OCCC(C)C)c1ccccc1 (configuration not stated) :: -10.1
COC(Cc1ccccc1)OC :: 17.4
CCN(CCO)CCCC(C)Nc1ccnc2cc(Cl)ccc12 (configuration not stated) :: -1.22
Oc1ccc(C(O)CNCCCCCCNCC(O)c2ccc(O)c(O)c2)cc1O (configuration not stated) :: 1.45
N#Cc1cc2ccccc2c2ccccc12 :: -18.9
CCCCCCOC(=O)CCC :: 6.13

Attention now shifts to the item below.
(Q) Return reported max response; argument: CCc1nn(C2CCCCC2)c2cc(C3(C#N)CCC(C(=O)O)CC3)ccc12 (configuration not stated)
(A) 0.457
